biological target: AGO2-MID domain (Homo sapiens, UniProt Q9UKV8); construct: mixed with an equal amount of a 5 μg/mL AGO2-MID domain solution; assay: Biacore competition experiment of nucleotide (monomer) for the AGO2-MID domain (Test Examples 7 and 8); format: binding; conditions: Test Example 8; 2.5 μg/mL AGO2-MID domain solution containing the monomer at 100 μM; read-out: inhibition rate (%) (100 μM AGO2-MID domain solutions)
Value type: inhibition at 100 µM (%)

Field: example entries. Status: answers known.
* O=P(O)(O)OC[C@H]1O[C@@H](n2cnc3c(-c4cccc(OCc5ccccc5)c4)ncnc32)[C@H](O)[C@@H]1O | 77.9
* Nc1cccc(-c2ncnc3c2ncn3[C@@H]2O[C@H](COP(=O)(O)O)[C@@H](O)[C@H]2O)c1 | 92.4
* O=C(O)c1cccc(-c2ncnc3c2ncn3[C@@H]2O[C@H](COP(=O)(O)O)[C@@H](O)[C@H]2O)c1 | 73.2
* O=P(O)(O)OC[C@H]1O[C@@H](n2cnc3c(-c4cccc5ccccc45)ncnc32)[C@H](O)[C@@H]1O | 33.9
* Cc1c(C#N)n([C@@H]2O[C@H](COP(=O)(O)O)[C@@H](O)[C@H]2O)c(=O)[nH]c1=O | 88.4

1: O=c1[nH]c(=O)n([C@@H]2O[C@H](COP(=O)(O)O)[C@@H](O)[C@H]2O)c2cccc(Cl)c12
2: Cc1cc(=O)[nH]c(=O)n1[C@@H]1O[C@H](COP(=O)(O)O)[C@@H](O)[C@H]1O
// select label with min value of measured inhibition at 100 µM from [ 1 , 2 ] Write down the label of the entry you select.
2

---

molecular target: AGO2-MID domain (Homo sapiens, UniProt Q9UKV8); construct: mixed with an equal amount of a 5 μg/mL AGO2-MID domain solution; test: Biacore competition experiment of nucleotide (monomer) for the AGO2-MID domain (Test Examples 7 and 8); type: binding; conditions: Test Example 8; 2.5 μg/mL AGO2-MID domain solution containing the monomer at 100 μM; read-out: inhibition rate (%) (100 μM AGO2-MID domain solutions)
Value type: inhibition at 100 µM (%)

* O=c1[nH]c(=O)n([C@@H]2O[C@H](COP(=O)(O)O)[C@@H](O)[C@H]2O)c2cc(Cl)c([N+](=O)[O-])cc12 [compound I-35] | 88
* CNc1cc2c(cc1[N+](=O)[O-])c(=O)[nH]c(=O)n2[C@@H]1O[C@H](COP(=O)(O)O)[C@@H](O)[C@H]1O [compound I-37] | 92.3
* O=Cc1cccc(-c2ncnc3c2ncn3[C@@H]2O[C@H](COP(=O)(O)O)[C@@H](O)[C@H]2O)c1 [compound I-22] | 91.6
* O=c1[nH]c(=O)n([C@@H]2O[C@H](COP(=O)(O)O)[C@@H](O)[C@H]2O)cc1-c1ccccn1 [compound I-14] | 63.3
* O=c1[nH]c(=O)n([C@@H]2O[C@H](COP(=O)(O)O)[C@@H](O)[C@H]2O)cc1-c1ncco1 [compound I-15] | 73
* O=P(O)(O)OC[C@H]1O[C@@H](n2cnc3c(-c4cccc(N5CCOCC5)c4)ncnc32)[C@H](O)[C@@H]1O [compound I-28] | 77
* O=P(O)(O)OC[C@H]1O[C@@H](n2cnc3c(/C=C/c4ccccc4)ncnc32)[C@H](O)[C@@H]1O [compound I-10] | 73.5
* COc1cc2c(=O)[nH]c(=O)n([C@@H]3O[C@H](COP(=O)(O)O)[C@@H](O)[C@H]3O)c2cc1OC [compound I-5] | 87.4
* Cc1cn([C@@H]2O[C@H](COP(=O)(O)O)[C@@H](O)[C@H]2O)c(=O)[nH]c1=O [compound I-33] | 82.9
* O=c1[nH]c(=O)n([C@@H]2O[C@H](COP(=O)(O)O)[C@@H](O)[C@H]2O)c2ccc(Cl)cc12 [compound I-6] | 70
* CN(C)c1cc2c(cc1[N+](=O)[O-])c(=O)[nH]c(=O)n2[C@@H]1O[C@H](COP(=O)(O)O)[C@@H](O)[C@H]1O [compound I-36] | 91.6
* O=c1[nH]c(=O)n([C@@H]2O[C@H](COP(=O)(O)O)[C@@H](O)[C@H]2O)c2ccc([N+](=O)[O-])cc12 [compound I-23] | 85.2
* CC(C)c1cccc(-c2ncnc3c2ncn3[C@@H]2O[C@H](COP(=O)(O)O)[C@@H](O)[C@H]2O)c1 [compound I-20] | 76.9
* O=P(O)(O)OC[C@H]1O[C@@H](n2c(Br)nc3c(/C=C/c4ccccc4)ncnc32)[C@H](O)[C@@H]1O [compound I-18] | 97.8
* O=c1[nH]c(=O)n([C@@H]2O[C@H](COP(=O)(O)O)[C@@H](O)[C@H]2O)c2cc(Cl)ccc12 [compound I-7] | 71.7
* O=P(O)(O)OC[C@H]1O[C@@H](n2cnc3c(/C=C/c4cccc(Cl)c4)ncnc32)[C@H](O)[C@@H]1O [compound I-38] | 78.9
* COc1ccc(-c2cn([C@@H]3O[C@H](COP(=O)(O)O)[C@@H](O)[C@H]3O)c(=O)[nH]c2=O)cc1 [compound I-16] | 65.6
* O=P(O)(O)OC[C@H]1O[C@@H](n2cnc3c(-c4ccc5ccccc5c4)ncnc32)[C@H](O)[C@@H]1O [compound I-21] | 78.2
* O=c1[nH]c(=O)n([C@@H]2O[C@H](COP(=O)(O)O)[C@@H](O)[C@H]2O)cc1/C=C/c1ccccc1 [compound I-31] | 73.6
* CN(C)c1ncnc2c1nc(C#N)n2[C@@H]1O[C@H](COP(=O)(O)O)[C@@H](O)[C@H]1O [compound I-12] | 74.2

Every entry's value here was drawn from patent US10342819B2.
